Recorded values, source patent US9969687B2.

Entries and their measured Ki follow.
assayed.system: CCR9 (Homo sapiens (Human))
experiment.notes: FLIPR calcium flux assay using hCCR9 over expressed cells (Chem1-hCCR9), TECK stimulation
Type: cell-based
stated.conditions: Chem1-hCCR9 overexpressing cells
Report the figure in µM without appending any unit label.

1. Cc1ccc(N2C(=O)c3c(Cl)ccc(NS(=O)(=O)c4ccc(C(C)(C)C)cc4)c3C2=O)c(C)[n+]1[O-] [Compound 227] :: 0.032
2. COc1c(N2C(=O)c3c(Cl)ccc(NS(=O)(=O)c4ccc(C(C)(C)C)cc4)c3C2=O)ccc[n+]1[O-] [Compound 194] :: 0.006
3. Cc1c[n+]([O-])ccc1N1C(=O)c2c(Cl)ccc(NS(=O)(=O)c3ccc(C(C)(C)C)cc3)c2C1=O [Compound 272] :: 0.029
4. COC(=O)c1cc(N2C(=O)c3c(Cl)ccc(NS(=O)(=O)c4ccc(C(C)(C)C)cc4)c3C2=O)nn1C [Compound 292] :: 0.016
5. CC(C)(C)c1ccc(S(=O)(=O)Nc2ccc(Cl)c3c2C(=O)N(Cc2ccncc2)C3=O)cc1 [Compound 201] :: 0.017

Could you now consider this next compound?
The compound listed as CCOc1cc(N2C(=O)c3c(Cl)ccc(NS(=O)(=O)c4ccc(C(C)(C)C)cc4)c3C2=O)c[n+]([O-])c1 [Compound 197] shows Ki equal to 0.04

* * *

assayed.system: UniProt:P51686
experiment.notes: FLIPR calcium flux assay using MOLT4 cells, TECK stimulation
Assay type: cell-based
stated.conditions: MOLT4 cells (human T-cell line)
# Ki binned as one: < 0.02 µM; two: ≥ 0.02 µM and < 0.1 µM; three: ≥ 0.1 µM

A selection of reference data follows.
1. Cc1cc(C)c(CN2C(=O)c3c(Cl)ccc(NS(=O)(=O)c4ccc(C(C)(C)C)cc4)c3C2=O)c(=O)[nH]1 :: one
2. CC(C)(C)c1ccc(S(=O)(=O)Nc2ccc(Cl)c3c2C(=O)N(Cc2cccc[n+]2[O-])C3=O)cc1 :: one
3. Cc1cnc(N2C(=O)c3c(Cl)ccc(NS(=O)(=O)c4ccc(C(C)(C)C)cc4)c3C2=O)s1 :: two
4. Cn1cc(N2C(=O)c3c(Cl)ccc(NS(=O)(=O)c4ccc(C(C)(C)C)cc4)c3C2=O)c(C(=O)O)n1 :: three
5. CC(C)(C)c1ccc(S(=O)(=O)Nc2ccc(Cl)c3c2C(=O)N(c2ccc[nH]c2=O)C3=O)cc1 :: one

Note: place this compound into its band. Item: Cc1ccncc1CN1C(=O)c2c(Cl)ccc(NS(=O)(=O)c3ccc(C(C)(C)C)cc3)c2C1=O
two

Note: place this compound into its band. Item: CC(C)(C)c1ccc(S(=O)(=O)Nc2ccc(Cl)c3c2C(=O)N(c2ccc(F)cn2)C3=O)cc1
one

Note: place this compound into its band. Item: CCOC(=O)c1ncccc1N1C(=O)c2c(Cl)ccc(NS(=O)(=O)c3ccc(C(C)(C)C)cc3)c2C1=O
one

Note: place this compound into its band. Item: Cc1ccc(N2C(=O)c3c(Cl)ccc(NS(=O)(=O)c4ccc(C(C)(C)C)cc4)c3C2=O)c(C)[n+]1[O-]
one

Note: place this compound into its band. Item: CC(C)(C)c1ccc(S(=O)(=O)Nc2ccc(Cl)c3c2C(=O)N(Cc2cncc(C#N)c2)C3=O)cc1
two

Note: place this compound into its band. Item: CCc1c(OC)c[n+]([O-])cc1N1C(=O)c2c(Cl)ccc(NS(=O)(=O)c3ccc(C(C)(C)C)cc3)c2C1=O
one

Note: place this compound into its band. Item: COc1c[n+]([O-])cc(N2C(=O)c3c(Cl)ccc(NS(=O)(=O)c4ccc(C(C)(C)C)cc4)c3C2=O)c1C
two

* * *

Entries and their measured Ki follow.
assayed.system: CCR9 (Homo sapiens (Human))
experiment.notes: FLIPR calcium flux assay using hCCR9 over expressed cells (Chem1-hCCR9), TECK stimulation
Format: cell-based
stated.conditions: Chem1-hCCR9 overexpressing cells

Examples from the recorded data:
1. Cc1nccnc1N1C(=O)c2c(Cl)ccc(NS(=O)(=O)c3ccc(C(C)(C)C)cc3)c2C1=O :: 61 nM
2. O=C1c2c(Cl)ccc(NS(=O)(=O)c3ccc(OC(F)(F)F)cc3)c2C(=O)N1c1cccnc1 :: 314 nM
3. CC(C)(C)c1ccc(S(=O)(=O)Nc2ccc(Cl)c3c2C(=O)N(c2cn[nH]c2)C3=O)cc1 :: 94 nM
4. Cc1cc(N2C(=O)c3c(Cl)ccc(NS(=O)(=O)c4ccc(C(C)(C)C)cc4)c3C2=O)c[n+]([O-])c1 :: 53 nM
5. CC(C)(C)c1ccc(S(=O)(=O)Nc2ccc(Cl)c3c2C(=O)N(c2cccc[n+]2[O-])C3=O)cc1 :: 50 nM

The compound listed as COc1cncc(N2C(=O)c3c(Cl)ccc(NS(=O)(=O)c4ccc(C(C)(C)C)cc4)c3C2=O)c1 shows Ki equal to 174 nM

The compound listed as O=C1c2c(Cl)ccc(NS(=O)(=O)c3ccc(C(F)(F)F)cc3)c2C(=O)N1c1cn[nH]c1 shows Ki equal to 397 nM

The compound listed as Cc1cnc(N2C(=O)c3c(Cl)ccc(NS(=O)(=O)c4ccc(C(C)(C)C)cc4)c3C2=O)cn1 shows Ki equal to 54 nM

The compound listed as CC(C)(C)c1ccc(S(=O)(=O)Nc2ccc(Cl)c3c2C(=O)N(c2ccsc2C(=O)O)C3=O)cc1 shows Ki equal to 23 nM

The compound listed as COc1cncc(N2C(=O)c3c(C#N)ccc(NS(=O)(=O)c4ccc(C(C)(C)C)cc4)c3C2=O)c1 shows Ki equal to 17 nM

* * *

Entries and their measured pKi follow.
assayed.system: CCR9 (Homo sapiens (Human), UniProt P51686)
Sequence (P51686 whole entry): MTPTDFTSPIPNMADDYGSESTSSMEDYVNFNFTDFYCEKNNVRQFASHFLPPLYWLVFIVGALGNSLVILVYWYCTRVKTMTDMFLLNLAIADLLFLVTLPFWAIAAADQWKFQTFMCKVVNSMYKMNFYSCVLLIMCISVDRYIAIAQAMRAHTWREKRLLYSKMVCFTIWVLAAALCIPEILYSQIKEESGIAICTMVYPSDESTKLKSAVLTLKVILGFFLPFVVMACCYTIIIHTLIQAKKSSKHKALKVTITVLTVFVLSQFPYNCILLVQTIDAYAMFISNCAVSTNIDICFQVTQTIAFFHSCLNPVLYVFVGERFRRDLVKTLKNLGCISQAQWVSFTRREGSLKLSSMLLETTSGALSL
experiment.notes: FLIPR calcium flux assay using hCCR9 over expressed cells (Chem1-hCCR9), TECK stimulation
Type: cell-based
stated.conditions: Chem1-hCCR9 overexpressing cells
Scale: negative log10 of molar concentration, which is what pKi denotes.

1) COc1cncc(CN2C(=O)c3c(Cl)ccc(NS(=O)(=O)c4ccc(C(C)(C)C)cc4)c3C2=O)c1 [Compound 212] :: 7.22
2) Cn1cnc(N2C(=O)c3c(Cl)ccc(NS(=O)(=O)c4ccc(C(C)(C)C)cc4)c3C2=O)c1 [Compound 153] :: 7.37
3) CC(C)(C)c1ccc(S(=O)(=O)Nc2ccc(Cl)c3c2C(=O)N(c2ccc[n+]([O-])c2)C3=O)cc1 [Compound 44] :: 6.75
4) Cc1cnc(C)c(N2C(=O)c3c(Cl)ccc(NS(=O)(=O)c4ccc(C(C)(C)C)cc4)c3C2=O)c1 [Compound 263] :: 7.60
5) CC(C)(C)c1ccc(S(=O)(=O)Nc2ccc(Cl)c3c2C(=O)N(Cc2cncc(C#N)c2)C3=O)cc1 [Compound 195] :: 7.38

The compound listed as Cn1nnc(N2C(=O)c3c(Cl)ccc(NS(=O)(=O)c4ccc(C(C)(C)C)cc4)c3C2=O)n1 [Compound 234] shows pKi equal to 7.37

The compound listed as CC(C)(C)c1ccc(S(=O)(=O)Nc2ccc(Cl)c3c2C(=O)N(c2ccc[nH]c2=O)C3=O)cc1 [Compound 281] shows pKi equal to 8.40

* * *

Entries and their measured Ki follow.
assayed.system: CCR9 (Homo sapiens (Human), UniProt P51686)
experiment.notes: FLIPR calcium flux assay using MOLT4 cells, TECK stimulation
Assay type: cell-based
stated.conditions: MOLT4 cells (human T-cell line)
Report the figure in nM without appending any unit label.

Examples from the recorded data:
1) CC(C)(C)c1ccc(S(=O)(=O)Nc2ccc(Cl)c3c2C(=O)N(c2cc(F)ccn2)C3=O)cc1 :: 22
2) CC(C)(C)c1ccc(S(=O)(=O)Nc2ccc(Cl)c3c2C(=O)N(c2cccc[n+]2[O-])C3=O)cc1 :: 34
3) Cc1cc(C)nc(N2C(=O)c3c(Cl)ccc(NS(=O)(=O)c4ccc(C(C)(C)C)cc4)c3C2=O)n1 :: 84
4) COc1ncccc1N1C(=O)c2c(Cl)ccc(NS(=O)(=O)c3ccc(C(C)(C)C)cc3)c2C1=O :: 3
5) CC(C)(C)c1ccc(S(=O)(=O)Nc2ccc(C#N)c3c2C(=O)N(Cc2ccc[n+]([O-])c2)C3=O)cc1 :: 37
6) O=C1c2c(Cl)ccc(NS(=O)(=O)c3ccc(Cl)c(C(F)(F)F)c3)c2C(=O)N1c1cccnc1 :: 171

The molecule listed as CC(C)(C)c1ccc(S(=O)(=O)Nc2ccc(Cl)c3c2C(=O)N(c2ccccn2)C3=O)cc1 shows Ki equal to 6

* * *

assayed.system: CCR9 (Homo sapiens (Human))
experiment.notes: FLIPR calcium flux assay using MOLT4 cells, TECK stimulation
Assay type: cell-based
stated.conditions: MOLT4 cells (human T-cell line)
API: label(entry) gives MET if the entry's Ki is strictly smaller than 30 nM; on equality or larger values it gives NOT MET.

A selection of reference data follows.
1. Cc1ccc(CN2C(=O)c3c(Cl)ccc(NS(=O)(=O)c4ccc(C(C)(C)C)cc4)c3C2=O)c(C)[n+]1[O-] [Compound 252] :: NOT MET
2. COc1ccc(N2C(=O)c3c(Cl)ccc(NS(=O)(=O)c4ccc(C(C)(C)C)cc4)c3C2=O)nc1C [Compound 260] :: MET
3. CC(C)(C)c1ccc(S(=O)(=O)Nc2ccc(Cl)c3c2C(=O)N(c2cccnc2)C3=O)cc1 [Compound 43] :: MET
4. COc1ncccc1CN1C(=O)c2c(Cl)ccc(NS(=O)(=O)c3ccc(C(C)(C)C)cc3)c2C1=O [Compound 247] :: NOT MET
5. Cc1cncc(N2C(=O)c3c(Cl)ccc(NS(=O)(=O)c4ccc(C(C)C)cc4)c3C2=O)c1 [Compound 105] :: NOT MET

Consider COc1cncc(N2C(=O)c3c(Cl)ccc(NS(=O)(=O)c4ccc(C(F)(F)F)cc4)c3C2=O)c1 [Compound 92] . Does its Ki lie strictly below 30 nM?
NOT MET

Consider COc1cc[n+]([O-])cc1N1C(=O)c2c(Cl)ccc(NS(=O)(=O)c3ccc(C(C)(C)C)cc3)c2C1=O [Compound 189] . Does its Ki lie strictly below 30 nM?
MET

Consider CC(C)(C)c1ccc(S(=O)(=O)Nc2ccc(Cl)c3c2C(=O)N(c2ccsc2C(=O)O)C3=O)cc1 [Compound 288] . Does its Ki lie strictly below 30 nM?
MET

Consider CC(C)(C)c1ccc(S(=O)(=O)Nc2ccc(Cl)c3c2C(=O)N(Cc2c(F)ccc[n+]2[O-])C3=O)cc1 [Compound 241] . Does its Ki lie strictly below 30 nM?
MET
